Source: PubChem BioAssay

Tested on: Neuregulin-1 EGF-like domain
assay_overview: binders of neuregulin-1 EGF-like domain, primary screen, biochemical, small-molecule microarray, 635 nm fluorescence (AID 1081);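 note: binding of the protein to compounds printed on small-molecule microarray slides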
condition_summary: small-molecule microarray binding, higher = more signal
quantity: composite z-score
Answer with a bare number; do not write a unit.

Here are 2 compounds together with their reported answers.
compound	composite z-score
C=C(/C=C/CNS(=O)(=O)c1ccc(C)cc1)[C@H](O)[C@H]1CCCN1S(=O)(=O)c1ccccc1[N+](=O)[O-]	0.0706
COc1ccc([Si](C)(C)[C@H]2[C@H](CCn3cc([C@H](O)c4ccccc4)nn3)O[C@@]3(C(=O)N(Cc4cccc(N5C(=O)c6cccc7cccc5c67)c4)c4ccccc43)[C@@H]2C)cc1	0.251

Could you share which composite z-score value was measured for `CCOC(=O)C[C@H]1[C@H](OC(=O)c2ccc(C(=O)c3ccccc3)cc2)[C@@H](NC(=O)c2ccc3ccccc3c2)c2cc(OCCCO)ccc2N1C(=O)c1ccccc1` ? 1.07

Could you share which composite z-score value was measured for O=C1OCCC=C[C@H]2OC34C=CCN(c5ccc(Cl)cc5)C(=O)[C@H]3N(CCCCCO)C(=O)[C@@H]4C12 (stereo partly specified) ? 1.44

Could you share which composite z-score value was measured for `C[N+](C)(C)CCCC[C@@H]1NC(=O)[C@@H]2C[C@H](C(=O)O)[C@H](c3ccc(O)cc3)N2C1=O` ? -0.118

Could you share which composite z-score value was measured for CC(C)CCC[C@@H](C)[C@H]1CC[C@@]2(C)C3=C(CC[C@]12C)[C@@]1(C)CC[C@H](OC(=O)c2ccc(Br)cc2)C(C)(C)C1CC3 (stereo partly specified) ? 0.439

---

The following compounds are shown together with reported z-score values.
assay_overview: adipocyte viability effects, profiling panel, cell-based, 3T3-L1 adipocytes, calcein-AM fluorescence, 48 h, basal (AID 1163); note: test concentration not given here
condition_summary: 3T3-L1 adipocytes viability, higher = more signal

Here are 8 compounds together with their reported answers.
compound	quantity	result
C=CCNC(=O)[C@@H]1[C@H]2C(=O)O[C@H](c3ccccc3)[C@H](c3ccccc3)N2[C@H](c2ccc(OCCO)cc2)[C@@]12C(=O)N(C(=O)OCCOC)c1ccc(C#CC3=CCCCC3)cc12	z-score	-0.354
C[C@H]1C2=C3C(CC[C@H]4C(OCc5ccc(F)cc5C(F)(F)F)OC[C@](C)([C@@H]34)N(C(=O)OC(C)(C)C)C2)C2COC(=O)OCC21 (stereo not given in full)	z-score	0.338
CCOc1cc(C(O)C2C=CC3C(=O)N(C4CCCCC4)C(=O)C3N2Nc2ccc(OC)cc2)ccc1O (stereo not given)	z-score	-0.786
COc1ccc([Si](C)(C)[C@@H]2[C@@H](CCn3cc([C@H](O)c4ccccc4)nn3)O[C@]3(C(=O)N(Cc4ccc(N5CCOC5=O)cc4)c4ccccc43)[C@H]2C)cc1	z-score	0.417
Cc1ccc(S[C@]2(C(=O)NC(C)C)CC(=O)N(Cc3ccccc3C(F)(F)F)[C@@H]2c2ccc(CO)cc2I)cc1	z-score	0.384
CCOC(=O)[C@H]1C/C=C/C[C@H](C(=O)OCC)C(=O)O[C@H]2[C@@H](OC)O[C@H](CO)[C@@H](OC(=O)Nc3ccc(OC)cc3)[C@@H]2OC1=O	z-score	0.202
NCCCCCCNC(=O)[C@@H]1C[C@@H]2C(=O)N3CCC[C@H]3C(=O)N2[C@@H]1c1ccc(O)cc1	z-score	0.548
COCCCNC(=O)[C@@]1(Sc2ccc(C)cc2)CC(=O)N(C2Cc3ccccc3C2)[C@@H]1c1ccc(CO)cc1I	z-score	-0.175

Could you share which z-score value was measured for `CC(C)NC(=O)[C@@]1(C)c2ccccc2C(=O)N(C(C)C)[C@H]1c1ccc(CO)cc1` ? 0.545

Could you share which z-score value was measured for `C[n+]1ccc(CCCO)cc1` ? 0.927

Could you share which z-score value was measured for `[N-]=[N+]=Nc1ccccc1C[C@@]1(C(=O)O)N=C(c2ccc(OCCCO)cc2)O[C@@H]1c1ccccc1` ? -0.532

Could you share which z-score value was measured for `Cc1ccc(F)cc1S(=O)(=O)N[C@@H]1CCN(Cc2ccc(Oc3ccccc3)cc2)C1` ? -0.119

Could you share which z-score value was measured for `O=C1O[C@@H](c2ccccc2)[C@@H](c2ccccc2)N2[C@@H](c3ccc(O)cc3)[C@]3(C(=O)Nc4ccccc43)[C@@H](C(=O)Nc3nc4ccccc4s3)[C@H]12` ? 0.353

Could you share which z-score value was measured for O=C1NC(=O)C2C1C=CC(C(O)c1ccc(Br)cc1)N2Nc1ccccn1 (stereo not given) ? 0.805

Could you share which z-score value was measured for `COC(=O)[C@@]1(Cc2ccc(OC)cc2)[C@H]2c3cc(C(=O)N(C)C)n(CCc4c[nH]c5ccc(O)cc45)c3C[C@H]2CN1C(=O)c1ccccc1` ? -0.737

---

assay_overview: small-molecule binders of probe aLefty1, primary screen, biochemical, small-molecule microarray, 635/667 nm fluorescence (AID 1153);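 note: score merges spot fluorescence with signal-to-noise ratio from the scanned slide images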
condition_summary: higher = more signal
The following compounds are shown together with reported composite z-score values.
Answer with a bare number; do not write a unit.

Here are 3 compounds together with their reported answers.
smiles_record	composite z-score
O=C1O[C@@H](c2ccccc2)[C@@H](c2ccccc2)N2[C@@H](c3ccc(O)cc3)[C@]3(C(=O)Nc4ccc(C#CCCO)cc43)[C@@H](C(=O)NC[C@H](O)c3ccccc3)[C@H]12	0.279
C=CC[C@]1(C(=O)N(C)C)N=C(c2ccc(OCCCO)cc2)O[C@H]1c1ccccc1N=[N+]=[N-]	0.313
O=C1O[C@@H](c2ccccc2)[C@@H](c2ccccc2)N2[C@@H](c3ccc(O)cc3)[C@]3(C(=O)Nc4ccccc43)[C@@H](C(=O)Nc3nc4ccccc4s3)[C@H]12	-0.209

Could you share which composite z-score value was measured for `CCOC(=O)C[C@H]1[C@H](OC(=O)c2ccc(-c3ccccc3)cc2)[C@@H](NC(=O)C2CCCCC2)c2cc(OCCCO)ccc2N1C(=O)c1ccccc1` ? -0.263

Could you share which composite z-score value was measured for `C=C(/C(=C/C[C@@H](OC(=O)c1ccncc1)c1ccccc1OCCO)c1cc(C(=O)OC)ccc1OC)C(C)C` ? -0.204

Could you share which composite z-score value was measured for `COc1cc2c(cc1OC)CN(C(=O)[C@H]1[C@@H]3C(=O)O[C@@H](c4ccccc4)[C@@H](c4ccccc4)N3[C@@H](c3ccc(OCCO)cc3)[C@]13C(=O)Nc1ccc(C#CC4(O)CCCCCC4)cc13)CC2` ? 1.51

---

assay_overview: P. aeruginosa biofilm formation inhibitors, primary screen, strain PAO1, LB-PBS medium, absorbance 600 nm (AID 1176); note: test concentration not given here
condition_summary: P. aeruginosa PAO1 growth/biofilm, A600, 12 h; higher = more signal
Binary call on z-score: TRUE from -0.1 upward, FALSE beneath that.

molecule	discrete_label
C=C(C(=O)CC[C@H](OC(C)=O)c1cccc(OCCO)c1)C(C)C	FALSE
CCOC(=O)C[C@H]1[C@H](OC(=O)Cc2ccc3c(c2)OCO3)[C@@H](NC(=O)C2CCCCC2)c2cc(OCCCO)ccc2N1C(=O)c1ccc2ccccc2n1	FALSE
C=C(C(=O)CC[C@H](OC(=O)c1cccnc1)c1ccc(CO)o1)C(C)C	TRUE
O=C1NC(=O)C2C1C=CC(C(O)c1ccc(Br)cc1)N2Nc1ccccn1 (stereo not given)	TRUE
O=C1O[C@H](c2ccccc2)[C@H](c2ccccc2)N2[C@H]1[C@@H](C(=O)O)[C@]1(C(=O)Nc3ccccc31)[C@H]2c1ccc(O)cc1	TRUE

Say whether `CCOC(=O)C[C@H]1[C@H](OC(=O)c2ccc(-c3ccccc3)cc2)[C@@H](NC(=O)c2ccc3ccccc3n2)c2cc(OCCCO)ccc2N1C(=O)c1ccccc1` shows z-score of -0.1 or more. FALSE

Say whether `COc1ccc([Si](C)(C)[C@H]2[C@H](CCn3cc([C@H](O)c4ccccc4)nn3)O[C@@]3(C(=O)N(Cc4cccc(N5C(=O)c6cccc7cccc5c67)c4)c4ccccc43)[C@@H]2C)cc1` shows z-score of -0.1 or more. TRUE

Say whether `COc1ccccc1CN1C(=O)c2ccccc2[C@@H](C(=O)NC(C)C)[C@@H]1c1ccc(CO)cc1` shows z-score of -0.1 or more. FALSE

Say whether `CC(C)(C)OC(=O)CC[C@]1(C(=O)NCCN2CCOCC2)N=C(c2ccc(OCCCO)cc2)O[C@H]1c1ccccc1` shows z-score of -0.1 or more. FALSE

Say whether `C=C[C@H](COC(C)=O)NS(=O)(=O)c1ccc(Br)cc1` shows z-score of -0.1 or more. FALSE

Say whether `COC(=O)[C@@]1(Cc2ccc(OC)cc2)[C@H]2c3cc(C(=O)N(C)C)n(Cc4ccccc4)c3C[C@H]2CN1C(=O)c1ccccc1` shows z-score of -0.1 or more. TRUE

Say whether `Cc1ccc(S[C@]2(C(=O)NCC(F)(F)F)CC(=O)N(Cc3ccccc3)[C@@H]2c2ccc(CO)cc2)cc1` shows z-score of -0.1 or more. FALSE

Say whether `CO[C@H]1O[C@H](CO)[C@@H](OC(=O)c2ccc(Br)cc2)[C@@H]2OC(=O)[C@@H](Cc3ccc4ccccc4c3)C/C=C/C[C@H](Cc3ccc4ccccc4c3)C(=O)O[C@@H]12` shows z-score of -0.1 or more. FALSE

Say whether CC[C@@H]1[C@H]2C3C(=O)N(CC)C(=O)C3CC(=O)[C@H]2[C@H](c2ccc(C)cc2)N1S(=O)(=O)c1ccc(C)cc1 (stereo not given in full) shows z-score of -0.1 or more. FALSE
